- TESTED TARGET: Coagulation factor X (Homo sapiens, UniProt P00742)
- Sequence (P00742 41-179 limits assumed): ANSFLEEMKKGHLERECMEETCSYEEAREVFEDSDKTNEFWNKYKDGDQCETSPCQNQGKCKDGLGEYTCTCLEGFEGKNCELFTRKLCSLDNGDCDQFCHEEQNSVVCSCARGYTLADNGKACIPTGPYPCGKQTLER
- Sequence (P00742 235-488 limits assumed): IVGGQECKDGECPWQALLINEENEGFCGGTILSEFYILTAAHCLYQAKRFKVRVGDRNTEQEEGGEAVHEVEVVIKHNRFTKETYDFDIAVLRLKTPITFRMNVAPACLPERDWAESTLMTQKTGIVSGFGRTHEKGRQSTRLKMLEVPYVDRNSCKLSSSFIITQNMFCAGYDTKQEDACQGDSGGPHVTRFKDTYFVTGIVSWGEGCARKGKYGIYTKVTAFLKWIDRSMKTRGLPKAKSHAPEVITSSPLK
- ASSAY SUMMARY: Inhibition of recombinant human FXA using Boc-QAR-AMC as substrate assessed as inhibition constant by fluorescence based analysis
ASSAY READOUT: Ki

# count of solved cases: 2
CC(C)[C@H](NC(=O)[C@H](Cc1cscn1)NC(=O)CCc1ccccc1)C(=O)N[C@@H](CCCNC(=N)N)C(=O)c1nc2ccccc2s1 ... 2.32 µM
N=C(N)NCCC[C@H](NC(=O)[C@@H](NC(=O)[C@H](CCc1ccccc1)NC(=O)CCc1ccccc1)C1CCCCC1)C(=O)c1nc2ccccc2s1 ... > 10 µM

Please find the next compound below.
Query :: Any idea what Ki was measured for `N=C(N)NCCC[C@H](NC(=O)[C@@H](NC(=O)[C@H](Cc1cscn1)NC(=O)CCc1ccccc1)C1CCCCC1)C(=O)c1nc2ccccc2s1` ?
Result :: > 10 µM
